// data source = patent US8962660B2

# assay_target: human GPR120 (Homo sapiens, UniProt Q5NUL3)
# Sequence (Q5NUL3 1-361): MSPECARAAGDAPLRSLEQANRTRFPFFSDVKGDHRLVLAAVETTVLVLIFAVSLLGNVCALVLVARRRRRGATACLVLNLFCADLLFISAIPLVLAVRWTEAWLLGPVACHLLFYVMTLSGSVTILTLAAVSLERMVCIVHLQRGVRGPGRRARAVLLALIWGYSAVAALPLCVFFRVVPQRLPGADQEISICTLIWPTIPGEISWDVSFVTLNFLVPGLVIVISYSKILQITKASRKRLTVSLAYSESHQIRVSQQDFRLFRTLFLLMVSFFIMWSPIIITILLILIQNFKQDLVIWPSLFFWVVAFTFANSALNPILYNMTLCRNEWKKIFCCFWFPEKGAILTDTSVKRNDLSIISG
# experiment_description: GPR120 pERK AlphaScreen SureFire assay (human)
# measurement_conditions: CHO cells stably transfected with short form of human GPR120
result_type: log10 EC50 (log10 of the value in µM)
# log10 transformed; quantity=EC50; unit=µM

Sample answers from the record:
• O=C(O)COCCC12CCC(c3cccc(Oc4cccc(F)c4)c3)(CC1)OC2 = -0.55
• O=C(O)[C@@H]1C[C@H]1CCC12CCC(c3cccc(Oc4ccc(O)cc4)c3)(CC1)OC2 = 0.40

Could you report log10 EC50 for every entry in the following list?
1. O=C(O)[C@@H]1C[C@H]1CCC12CCC(c3cccc(Oc4cccc(F)c4)c3)(CC1)OC2 (single isomer, unassigned)
2. O=C(O)C1CC1CCCC12CCC(c3cccc(Oc4ccccc4)c3)(CC1)OC2 (centres unmarked)

Result ::
1: -0.48; 2: 0.34

###

Could you please report measured pEC50 for the items listed next?
# assay_target: human GPR120 (Homo sapiens)
# experiment_description: GPR120 pERK AlphaScreen SureFire assay (human)
# measurement_conditions: CHO cells stably transfected with short form of human GPR120
One number for each entry, as −log10 of the molar value.

Could you report pEC50 for every entry in the following list?
1. Cc1cc(Oc2cccc(C34CCC(CCOCC(=O)O)(CC3)CO4)c2)ccc1F [Example 78]
2. Cc1cc(Oc2cc(C34CCC(CCOCC(=O)O)(CC3)OC4)ccc2F)ccc1C#N [Example 114]
3. O=C(O)COCCC12CCC(c3cccc(OCC4CCC4)c3)(CC1)OC2 [Example 51]
4. O=C(NCc1ncn[nH]1)[C@H]1C[C@@H]1CCC12CCC(c3cccc(Oc4ccccc4)c3)(CC1)OC2 (single isomer, unassigned) [Example 68]
5. COc1cccc(Oc2cccc(C34CCC(CCOCC(=O)O)(CC3)OC4)c2)c1 [Example 102]
6. Cc1ccc(Oc2cc(C34CCC(CCOCC(=O)O)(CC3)OC4)ccc2F)cc1F [Example 112]
7. O=C(O)COCCC12CCC(c3cccc(Oc4cccc(O)c4)c3)(CC1)OC2 [Example 117]

Result ::
6.31
5.56
5.96
6.14
6.18
6.57
5.28

Could you report pEC50 for every entry in the following list?
1. Cc1ccc(Oc2cc(F)cc(C34CCC(CCOCC(=O)NO)(CC3)CO4)c2)cc1F [Example 94]
2. O=C(O)[C@H]1C[C@@H]1CCC12CCC(c3cccc(Oc4ccccc4)c3)(CC1)OC2 (single isomer, unassigned) [Example 14]

Result ::
1: 5.94; 2: 6.46

Could you report pEC50 for every entry in the following list?
1. O=C(O)COCCCC12CCC(c3cccc(Oc4ccccc4)c3)(CC1)CO2 [Example 110]
2. O=C(O)C1CC1COC12CCC(c3cccc(Oc4ccccc4)c3)(CC1)OC2 (stereo not drawn) [Example 96]

Result ::
1. 6.31
2. 5.77

Could you report pEC50 for every entry in the following list?
1. O=C(O)[C@@H]1C[C@H]1COCC12CCC(c3cccc(Oc4ccccc4)c3)(CC1)OC2 (single isomer, unassigned) [Example 98]
2. O=C(O)[C@@H]1C[C@H]1CCC12CCC(c3cccc(Oc4cccc(O)c4)c3)(CC1)OC2 (single isomer, unassigned) [Example 70]
3. O=C(O)COCCC12CCC(c3cccc(Oc4ccccc4)c3)(CC1)OC2 [Example 6]
4. O=C(O)C1CC1CCC12CCC(c3cccc(Oc4ccccc4)c3)(CC1)OC2 (racemic) [Example 13]
5. O=C(O)COCCC12CCC(c3cccc(Oc4ccccc4)c3)(CC1)CO2 [Example 31]
6. O=C(O)COCCC12CCC(c3cccc(OC4CCCCC4)c3)(CC1)OC2 [Example 8]
7. CC(C)COc1cc(F)cc(C23CCC(CCOCC(=O)O)(CC2)CO3)c1 [Example 36]
8. O=C(O)CCOCC12CCC(c3cccc(Oc4ccccc4)c3)(CC1)CO2 [Example 30]

Result ::
5.99
6.01
6.25
6.46
6.55
5.98
6.14
6.85

###

# assay_target: human GPR120 (Homo sapiens)
# experiment_description: GPR120 pERK AlphaScreen SureFire assay (human)
# measurement_conditions: CHO cells stably transfected with short form of human GPR120
# Text: GPR120 activity was monitored by measuring phosphorylation of ERK (pERK), since G protein receptors are known to activate the ERK signaling cascade either directly and/or through recruitment of arrestin that serves as a scaffold for downstream signaling events. GPR120 pERK AlphaScreen SureFire Assay The human and mouse GPR120-mediated intracellular phosphorylated ERK assays were established using CHOA12 cells stably transfected with the short form of human or mouse GPR120 receptor. […]
result_type: log10 EC50 (log10 of the value in nM)
# log10 transformed; quantity=EC50; unit=nM

Sample answers from the record:
- O=C(O)COCCC12CCC(c3cccc(Cc4ccccc4)c3)(CC1)OC2: 3.13
- COc1cc(Oc2ccccc2)cc(C23CCC(CCOCC(=O)O)(CC2)CO3)c1: 2.98
- O=C(O)[C@H]1C[C@@H]1COCC12CCC(c3cccc(Oc4ccccc4)c3)(CC1)OC2 (single isomer, unassigned): 2.53
- O=C(O)COCCC12CCC(c3cc(F)c(F)c(Oc4ccc(F)cc4)c3)(CC1)OC2: 2.54
- CCNC(=O)[C@@H]1C[C@H]1CCC12CCC(c3cccc(Oc4ccccc4)c3)(CC1)OC2 (single isomer, unassigned): 3.63
- O=C(O)COCCC12CCC(c3cccc(OCC4CCCCC4)c3)(CC1)OC2: 3.64
- O=C(O)COCCC12CCC(c3cccc(Oc4cccc(Cl)c4)c3)(CC1)OC2: 2.65
- CC(C)COc1cccc(C23CCC(CCOCC(=O)O)(CC2)CO3)c1: 3.11
- Cc1ccc(Oc2cc(C34CCC(CCOCC(=O)O)(CC3)CO4)ccc2F)cc1F: 2.54
- O=C(O)[C@@H]1C[C@H]1CCC12CCC(c3cccc(Oc4cc(F)cc(F)c4)c3)(CC1)OC2: 2.69

Could you report log10 EC50 for every entry in the following list?
1. OC[C@H](O)CCCC12CCC(c3cccc(Oc4ccccc4)c3)(CC1)OC2 (single isomer, unassigned)
2. O=C(O)COCCC12CCC(c3cccc(Oc4ccc(Cl)cc4)c3)(CC1)OC2
3. O=C(O)COCCC12CCC(c3cccc(OC4CCCCC4)c3)(CC1)CO2
4. Cc1ccc(Oc2cc(F)cc(C34CCC(CCOCC(=O)O)(CC3)OC4)c2)cc1F
5. O=C(O)[C@@H]1C[C@H]1CCC12CCC(c3cccc(Oc4ccccc4)c3)(CC1)OC2 (single isomer, unassigned)
6. COc1cc(Oc2cc(F)cc(C34CCC(CCOCC(=O)O)(CC3)CO4)c2)ccc1F

Result ::
2.76
2.48
2.81
2.86
2.68
2.93

###

Could you please report measured pEC50 for the items listed next?
# assay_target: human GPR120 (Homo sapiens)
# Construct: expressed in transfected cells; host or cells: CHOA12 cells
# experiment_description: GPR120 pERK AlphaScreen SureFire assay (human)
# Format: cell-based
# measurement_conditions: CHO cells stably transfected with short form of human GPR120
Numbers only, as −log10 of the molar value.

Sample answers from the record:
* O=C(O)COCCC12CCC(c3cccc(OS(=O)(=O)C(F)(F)F)c3)(CC1)OC2 | 5.99
* OCC(O)CCCC12CCC(c3cccc(Oc4ccccc4)c3)(CC1)OC2 (single isomer, unassigned) [Example 59] | 6.44
* O=C(O)CCCCC12CCC(c3cccc(Oc4ccccc4)c3)(CC1)OC2 | 7.22
* O=C(O)C1CC1CCC12CCC(c3cccc(OC4CCCCO4)c3)(CC1)OC2 (stereo not shown) | 5.28
* Cc1cc(Oc2cc(F)cc(C34CCC(CCOCC(=O)O)(CC3)CO4)c2)ccc1F | 6.28

Could you report pEC50 for every entry in the following list?
1. C=C(C)COc1cccc(C23CCC(CCOCC(=O)O)(CC2)CO3)c1
2. O=C(O)/C=C\CCC12CCC(c3cccc(Oc4ccccc4)c3)(CC1)OC2
3. Cc1ccc(Oc2cccc(C34CCC(CCOCC(=O)O)(CC3)CO4)c2)cn1

Result ::
[5.70, 6.18, 5.25]
